Can you tell me pIC50 for the items I'm about to list?
- TARGET_OR_SYSTEM: PCSK9 (Homo sapiens (Human), UniProt Q8NBP7)
- Sequence (Q8NBP7 153-692): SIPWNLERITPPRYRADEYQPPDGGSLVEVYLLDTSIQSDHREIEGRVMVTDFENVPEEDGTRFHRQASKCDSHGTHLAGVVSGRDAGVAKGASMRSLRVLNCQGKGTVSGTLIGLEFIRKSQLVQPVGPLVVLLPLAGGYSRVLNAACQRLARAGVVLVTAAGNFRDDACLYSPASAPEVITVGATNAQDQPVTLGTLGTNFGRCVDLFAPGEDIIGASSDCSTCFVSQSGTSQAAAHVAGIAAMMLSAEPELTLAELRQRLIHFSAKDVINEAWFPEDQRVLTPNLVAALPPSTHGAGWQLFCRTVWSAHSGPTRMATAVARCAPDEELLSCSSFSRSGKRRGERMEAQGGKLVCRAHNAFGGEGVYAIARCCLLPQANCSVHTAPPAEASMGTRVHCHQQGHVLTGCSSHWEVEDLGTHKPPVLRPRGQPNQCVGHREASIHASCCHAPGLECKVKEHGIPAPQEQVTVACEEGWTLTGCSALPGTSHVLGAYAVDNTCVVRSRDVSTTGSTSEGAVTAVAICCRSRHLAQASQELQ
- TEST_METHOD_NOTES: PCSK9 Alexa FRET Standard assay (displacement of AlexaFluor647 tagged cyclic peptide Reagent A)
- Assay type: binding
- PROTOCOL_CONDITIONS: PCSK9 Alexa FRET Standard assay, 0.5 nM PCSK9, 20 nM AF cyclic peptide Reagent A; read-out: IC50
pIC50: −log10 of the molar value. Starred links: 1 amine or outer side, 2 acyl side, 3 side chain; linkers in the order of their positions; H or OH if unused. Positions of bridges follow the written chain, without caps; N, C: chain ends. Non-standard residues stand in square brackets, D forms with d. Residues, ends and D or L forms follow the SMILES beside them. Ala(imidazol-2-yl) = N[C@@H](Cc1ncc[nH]1)C(=O)O; Trp(5-OH) = N[C@@H](Cc1c[nH]c2ccc(O)cc12)C(=O)O; Trp(5-F) = N[C@@H](Cc1c[nH]c2ccc(F)cc12)C(=O)O; X3 = O=C(CCSCc1cc(F)cc(CSCCN[*:1])c1)[*:2]; Lys(Me3) = C[N+](C)(C)CCCC[C@H](N)C(=O)O; mXylylene = c1cc(C[*:1])cc(C[*:2])c1; αMeP = C[C@@]1(C(=O)O)CCCN1; Mpa = O=C(O)CCS

Requested field: pIC50. Item: COc1ccc(C[C@@H]2NC(=O)[C@H](Cc3ncc[nH]3)NC(=O)[C@H](CC(=O)O)NC(=O)[C@H](Cc3c[nH]c4ccc(F)cc34)NC(=O)[C@H](Cc3c[nH]c4ccc(F)cc34)NC(=O)[C@@H](C)NC(=O)[C@H](CCCC[N+](C)(C)C)NC(=O)CCSCc3cc(F)cc(c3)CSCCNC(=O)[C@]3(C)CCCN3C2=O)cc1 [Compound 462] (cyclo(D[Ala(imidazol-2-yl)]Y(Me)[αMeP][X3][Lys(Me3)][dA][Trp(5-F)][Trp(5-F)]))
4.92 to 6.00

New cases:
What value of pIC50 has been recorded for this entry: C[C@@]12CCCN1C(=O)[C@H](Cc1ccc(O)cc1)NC(=O)[C@H](Cc1cnc[nH]1)NC(=O)[C@H](CC(=O)O)NC(=O)[C@H](Cc1c[nH]c3ccc(O)cc13)NC(=O)[C@H](Cc1c[nH]c3ccc(F)cc13)NC(=O)CNC(=O)[C@H](CCCCN)NC(=O)CCSCc1cccc(c1)CSC[C@@H](C(N)=O)NC2=O [Compound 399] ([Mpa]KG[Trp(5-F)][Trp(5-OH)]DHY[αMeP]C-NH2; linker 1-10 via mXylylene)
7.00 to 9.96
